pKi: −log10 of the molar value.
The following compounds have recorded pKi on Ectonucleoside triphosphate diphosphohydrolase 8 (Homo sapiens, UniProt Q5MY95).
Sequence (Q5MY95 whole entry): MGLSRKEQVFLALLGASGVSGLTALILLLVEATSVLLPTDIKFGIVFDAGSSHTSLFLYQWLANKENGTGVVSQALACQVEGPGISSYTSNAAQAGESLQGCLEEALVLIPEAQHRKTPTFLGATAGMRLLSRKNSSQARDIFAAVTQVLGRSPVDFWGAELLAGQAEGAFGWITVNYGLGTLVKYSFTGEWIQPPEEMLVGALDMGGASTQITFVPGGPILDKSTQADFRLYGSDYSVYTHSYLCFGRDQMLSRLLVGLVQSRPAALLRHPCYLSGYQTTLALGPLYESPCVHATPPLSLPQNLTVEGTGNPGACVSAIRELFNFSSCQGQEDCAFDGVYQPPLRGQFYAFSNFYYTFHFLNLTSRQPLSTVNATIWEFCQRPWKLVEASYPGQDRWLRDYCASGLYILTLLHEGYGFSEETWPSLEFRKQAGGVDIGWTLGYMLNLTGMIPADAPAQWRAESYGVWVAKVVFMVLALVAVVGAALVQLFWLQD

>  <compound>
CCN(CC)c1ncnc2c1ncn2[C@@H]1O[C@H](COP(=O)(O)OP(=O)(O)C(Br)(Br)P(=O)(O)O)[C@@H](O)[C@H]1O

>  <experimental system>
Ectonucleoside triphosphate diphosphohydrolase 8 (Homo sapiens, UniProt Q5MY95)

>  <reported property>
pKi

>  <meas value>
< 4.00

$$$$
>  <compound>
Nc1c(S(=O)(=O)O)cc(Nc2ccc(Nc3nc(Cl)nc(Nc4cccc(S(=O)(=O)O)c4)n3)c(S(=O)(=O)O)c2)c2c1C(=O)c1ccccc1C2=O [RB 2]

>  <experimental system>
Ectonucleoside triphosphate diphosphohydrolase 8 (Homo sapiens, UniProt Q5MY95)

>  <reported property>
pKi

>  <meas value>
< 4.00

$$$$
>  <compound>
Cc1ccc(C(=O)Nc2ccc(S(=O)(=O)O)c3cc(S(=O)(=O)O)cc(S(=O)(=O)O)c23)cc1NC(=O)c1cccc(NC(=O)Nc2cccc(C(=O)Nc3cc(C(=O)Nc4ccc(S(=O)(=O)O)c5cc(S(=O)(=O)O)cc(S(=O)(=O)O)c45)ccc3C)c2)c1 [SURAMIN]

>  <experimental system>
Ectonucleoside triphosphate diphosphohydrolase 8 (Homo sapiens, UniProt Q5MY95)

>  <reported property>
pKi

>  <meas value>
< 4.00

$$$$

Consider now this further compound.
Q: Form entry - test system: Ectonucleoside triphosphate diphosphohydrolase 8 (Homo sapiens, UniProt Q5MY95); read-out: pKi; compound: CCOP(=O)(Cc1ccc(NC(=O)CCCNC(=O)[C@H]2O[C@@H](n3cnc4c(N)ncnc43)[C@H](O)[C@@H]2O)cc1)OCC
A: 3.59
